Reported IC50 values for the following compounds.
Target: IRAK4 (Homo sapiens, UniProt Q9NWZ3)
Sequence (Q9NWZ3 1-460): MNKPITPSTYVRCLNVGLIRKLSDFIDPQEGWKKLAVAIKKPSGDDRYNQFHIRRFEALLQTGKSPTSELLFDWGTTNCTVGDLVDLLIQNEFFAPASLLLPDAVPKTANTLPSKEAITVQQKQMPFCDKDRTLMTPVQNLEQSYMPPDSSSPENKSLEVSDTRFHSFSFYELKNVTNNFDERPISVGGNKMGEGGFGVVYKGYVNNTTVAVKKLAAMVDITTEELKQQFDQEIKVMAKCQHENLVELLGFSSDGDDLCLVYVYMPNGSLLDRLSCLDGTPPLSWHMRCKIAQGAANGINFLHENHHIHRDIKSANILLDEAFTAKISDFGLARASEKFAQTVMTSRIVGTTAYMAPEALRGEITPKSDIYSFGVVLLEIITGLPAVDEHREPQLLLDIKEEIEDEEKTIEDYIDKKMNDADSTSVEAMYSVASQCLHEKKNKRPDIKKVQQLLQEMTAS
Assay: RBC HotSpot Kinase Assay, IRAK4
Format: biochemical
Parameters: purchased Reaction Biology (RBC HotSpot)
Settings: isolated kinase enzyme, 33P-ATP, P81 filter-binding
Respond with the bare value in nM.

Solved cases (5 shown):
1. COc1cc2ncc(-c3nc(N[C@H]4CNC[C@@H]4F)ncc3F)n2nc1C1CC1 [Compound 2a] :: 0.7
2. COc1cc2ncc(-c3nc(N[C@H]4CNCC[C@@H]4F)ncc3F)n2nc1C1CC(C)(C)C1 [Compound 57a] :: 1
3. COc1cc2ncc(-c3nc(N[C@@H]4CCCNC4)ncc3F)n2nc1N1CCS(=O)(=O)CC1 [Compound 124a] :: 138
4. COc1cc2ncc(-c3ccnc(N[C@H]4CNCC[C@@H]4F)n3)n2nc1C1CC2(CCC2)C1 [Compound 74a] :: 26
5. COc1cc2ncc(-c3nc(N[C@H]4CNC[C@@H]4F)ncc3F)n2nc1N1CCCS1(=O)=O [Compound 111a] :: 3

Identify measured IC50 associated with COc1cc2ncc(-c3ccnc(N[C@H]4CNC[C@@H]4F)n3)n2nc1C1COC1 [Compound 95a]
6

Return reported IC50. Input compound: CC(O)(c1cn2c(-c3nc(N[C@@H]4CCCNC4)ncc3F)cnc2cn1)C(F)(F)F (single isomer, unassigned) [Compound 131a]
28

Give IC50 for CC(C)(O)c1cn2c(-c3nc(N[C@H]4CNC[C@@H]4F)ncc3F)cnc2cn1 [Compound 98a]
2

Look up and report measured IC50 for this entry: COc1cc2ncc(-c3nc(N[C@@H]4CCCNC4)ncc3F)n2nc1C1CC2(CCC2)C1 [Compound 59a]
3

// Input: COc1cc2ncc(-c3ccnc(N[C@H]4CNCC[C@@H]4F)n3)n2nc1C1CCO1 (some centres unmarked) [Compound 109a] . Output its IC50 only.
4
